Reference for the values: paper PMC10489644

Test system: CYP1A2
Test: in vitro
Conditions: human, Mean Fold Induction
experimental_endpoint: fold induction at 48 h, 10 µM

Exercise: Could you share what fold induction at 48 h, 10 µM was measured for OC[C@H]1O[C@@H](OCCc2ccc(O)cc2)[C@H](O)[C@@H](O)[C@@H]1O [Salidroside] , tested on CYP1A2?
Solution: 0.9

###

Experiment: in vitro
Details: Sprague-Dawley (SD), rat, plasma, pH 7.4
experimental_endpoint: fraction unbound at 5 h, 5 µM
Give the figure only, with no unit attached.

Exercise: Look up fraction unbound at 5 h, 5 µM for this molecule: OC[C@H]1O[C@@H](OCCc2ccc(O)cc2)[C@H](O)[C@@H](O)[C@@H]1O [Salidroside]
Solution: 0.856

###

Test system: CYP3A4/5
Assay: CYP direct inhibition in human liver microsomes
Settings: pooled human liver microsomes, probe testosterone
experimental_endpoint: IC50 at 10 min (nM)
Write the number in nM without appending the unit.

Exercise: GET /values?readout=IC50 at 10 min&item= CC(=O)N1CCN(c2ccc(OCC3COC(Cn4ccnc4)(c4ccc(Cl)cc4Cl)O3)cc2)CC1 (stereo not shown) [Ketoconazole, ketoconazole]
Solution: 18.3

###

Test system: CYP2B6
Assay: in vitro
Details: human
Description: The sandwich medium was removed, and the hepatocytes were treated with incubation solutions containing salidroside (1, 5, 10, and 30 µM), vehicle (0.1% DMSO), or positive inducers in triplicate for 24 h after the cultures were established. […] Quantification of the selective genes by real-time quantitative polymerase chain reaction (qPCR) was performed with TaqMan universal PCR Master Mix on the Bio-rad CFX384 TouchTM Real-Time PCR System. […]
experimental_endpoint: fold induction at 48 h, 10 µM
Format: numeric value only, no unit, no commentary.

Exercise: Any idea what fold induction at 48 h, 10 µM was measured for OC[C@H]1O[C@@H](OCCc2ccc(O)cc2)[C@H](O)[C@@H](O)[C@@H]1O [Salidroside] ?
Solution: 0.87

###

Tested on: CYP3A4/5
Assay: in vitro
Details: human, microsomes
experimental_endpoint: IC50 at 10 min

Exercise: Requested read-out: IC50 at 10 min. Entry: OC[C@H]1O[C@@H](OCCc2ccc(O)cc2)[C@H](O)[C@@H](O)[C@@H]1O [Salidroside]
Solution: > 50 µM

###

Test system: CYP2B6
Test: in vitro
Settings: human, Mean Fold Induction, CYP2B6 mRNA; Lot# MWB; 1000 µM; 48 h
experimental_endpoint: fold induction at 48 h, 1000 µM
Answer field: number only, no words.

Exercise: Please give the measured fold induction at 48 h, 1000 µM for this compound: CCC1(c2ccccc2)C(=O)NC(=O)NC1=O [PB, phenobarbital, reference compound]
Solution: 14.7

###

Target: CYP2B6 (Homo sapiens, UniProt P20813)
Sequence (P20813 whole entry): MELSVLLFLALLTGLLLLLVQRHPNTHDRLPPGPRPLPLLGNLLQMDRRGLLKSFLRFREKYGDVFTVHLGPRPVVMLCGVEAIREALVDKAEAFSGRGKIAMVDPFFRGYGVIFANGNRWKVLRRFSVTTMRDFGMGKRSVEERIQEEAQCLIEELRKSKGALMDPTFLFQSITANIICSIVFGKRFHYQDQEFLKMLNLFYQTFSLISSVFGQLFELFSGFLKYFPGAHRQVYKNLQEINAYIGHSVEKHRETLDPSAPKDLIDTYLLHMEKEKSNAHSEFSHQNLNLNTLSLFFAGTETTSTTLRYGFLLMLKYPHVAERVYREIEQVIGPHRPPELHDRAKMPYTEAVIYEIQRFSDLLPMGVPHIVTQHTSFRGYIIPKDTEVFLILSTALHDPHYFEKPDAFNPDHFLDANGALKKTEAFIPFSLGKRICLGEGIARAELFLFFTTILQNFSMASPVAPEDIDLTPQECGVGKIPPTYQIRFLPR
Assay: biochemical
experimental_endpoint: IC50

Exercise: What value of measured IC50 is listed for OC[C@H]1O[C@@H](OCCc2ccc(O)cc2)[C@H](O)[C@@H](O)[C@@H]1O [Salidroside] ?
Solution: > 50 µM

###

Tested on: CYP2B6
Experiment: in vitro
Settings: human, Mean Fold Induction, CYP2B6 mRNA; Lot# 1911442; 1000 µM; 48 h
experimental_endpoint: fold induction at 48 h, 1000 µM
No unit in the answer, only the number.

Exercise: Given the entry CCC1(c2ccccc2)C(=O)NC(=O)NC1=O [PB, phenobarbital, reference compound] , report its measured fold induction at 48 h, 1000 µM.
Solution: 13.6

###

Test system: CYP1A2
Test: in vitro
Conditions: human
experimental_endpoint: fold induction at 48 h, 0.1 µM
Reply briefly: the number, and no unit.

Exercise: Find the recorded fold induction at 48 h, 0.1 µM belonging to OC[C@H]1O[C@@H](OCCc2ccc(O)cc2)[C@H](O)[C@@H](O)[C@@H]1O [Salidroside] and report it.
Solution: 0.8

###

Tested on: CYP1A2
Assay: in vitro
Conditions: human, Mean Fold Induction
experimental_endpoint: fold induction at 48 h, 30 µM

Exercise: Given OC[C@H]1O[C@@H](OCCc2ccc(O)cc2)[C@H](O)[C@@H](O)[C@@H]1O [Salidroside] , state its recorded fold induction at 48 h, 30 µM.
Solution: 0.8

###

Target: UniProtKB P20813
Assay: biochemical
pIC50: −log10 of the molar value.
experimental_endpoint: pIC50

Exercise: Param readout = pIC50; param system = UniProtKB P20813; param query = OC[C@H]1O[C@@H](OCCc2ccc(O)cc2)[C@H](O)[C@@H](O)[C@@H]1O [Salidroside] ; response: value
Solution: < 4.30

###

Target: CYP2D6 (Homo sapiens, UniProt P10635)
Sequence (P10635 whole entry): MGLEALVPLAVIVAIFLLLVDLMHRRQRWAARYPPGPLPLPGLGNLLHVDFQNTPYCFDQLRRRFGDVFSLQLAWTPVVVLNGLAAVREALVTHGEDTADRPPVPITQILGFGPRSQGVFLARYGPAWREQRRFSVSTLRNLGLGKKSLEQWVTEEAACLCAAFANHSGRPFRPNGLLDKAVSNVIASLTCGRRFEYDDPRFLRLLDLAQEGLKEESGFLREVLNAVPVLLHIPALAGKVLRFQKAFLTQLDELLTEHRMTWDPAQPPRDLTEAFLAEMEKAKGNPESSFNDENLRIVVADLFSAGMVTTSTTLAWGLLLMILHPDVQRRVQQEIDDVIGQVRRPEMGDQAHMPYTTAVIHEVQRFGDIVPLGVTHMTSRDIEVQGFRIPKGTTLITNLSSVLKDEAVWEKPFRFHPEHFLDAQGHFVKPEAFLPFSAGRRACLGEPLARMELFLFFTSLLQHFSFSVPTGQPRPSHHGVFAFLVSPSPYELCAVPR
Experiment: biochemical
pIC50: −log10 of the molar value.
experimental_endpoint: pIC50

Exercise: // returns reported pIC50 for input OC[C@H]1O[C@@H](OCCc2ccc(O)cc2)[C@H](O)[C@@H](O)[C@@H]1O [Salidroside]
Solution: < 4.30

###

Molecular target: CYP2C8 (Homo sapiens)
Sequence (P10632 1-490): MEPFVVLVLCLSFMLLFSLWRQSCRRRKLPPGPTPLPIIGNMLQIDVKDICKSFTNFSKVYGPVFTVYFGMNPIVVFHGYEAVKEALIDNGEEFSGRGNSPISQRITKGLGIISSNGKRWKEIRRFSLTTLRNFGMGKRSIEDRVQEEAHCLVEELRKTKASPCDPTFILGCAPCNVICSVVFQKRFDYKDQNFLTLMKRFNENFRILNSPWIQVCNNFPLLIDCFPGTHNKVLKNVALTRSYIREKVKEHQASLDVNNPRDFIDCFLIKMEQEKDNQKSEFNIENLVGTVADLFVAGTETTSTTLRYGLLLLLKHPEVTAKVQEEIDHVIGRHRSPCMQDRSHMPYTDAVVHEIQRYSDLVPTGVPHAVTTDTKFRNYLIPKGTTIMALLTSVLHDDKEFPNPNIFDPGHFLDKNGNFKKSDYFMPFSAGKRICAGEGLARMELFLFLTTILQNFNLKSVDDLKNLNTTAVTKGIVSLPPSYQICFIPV
Experiment: biochemical
pIC50: −log10 of the molar value.
experimental_endpoint: pIC50

Exercise: Can you share its pIC50? I mean this molecule: OC[C@H]1O[C@@H](OCCc2ccc(O)cc2)[C@H](O)[C@@H](O)[C@@H]1O [Salidroside]
Solution: < 4.30

###

Target: UniProt P11712
Sequence (P11712 whole entry): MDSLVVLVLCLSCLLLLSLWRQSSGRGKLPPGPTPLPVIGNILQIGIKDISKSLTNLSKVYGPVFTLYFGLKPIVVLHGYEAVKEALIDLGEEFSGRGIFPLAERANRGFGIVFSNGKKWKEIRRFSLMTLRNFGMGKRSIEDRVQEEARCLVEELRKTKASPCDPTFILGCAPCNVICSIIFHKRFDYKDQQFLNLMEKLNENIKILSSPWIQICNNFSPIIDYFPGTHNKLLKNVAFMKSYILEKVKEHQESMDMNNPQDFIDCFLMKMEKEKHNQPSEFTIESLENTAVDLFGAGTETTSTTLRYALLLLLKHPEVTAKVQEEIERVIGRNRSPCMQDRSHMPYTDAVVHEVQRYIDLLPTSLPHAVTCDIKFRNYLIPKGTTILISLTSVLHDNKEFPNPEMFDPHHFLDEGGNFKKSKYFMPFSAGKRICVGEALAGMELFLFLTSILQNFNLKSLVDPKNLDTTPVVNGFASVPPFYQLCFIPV
Assay: CYP direct inhibition in human liver microsomes
experimental_endpoint: IC50

Exercise: Entry OC[C@H]1O[C@@H](OCCc2ccc(O)cc2)[C@H](O)[C@@H](O)[C@@H]1O [Salidroside] : reported IC50 = ?
Solution: > 50 µM

###

System: CYP1A2
Experiment: in vitro
Conditions: human, cryopreserved human hepatocytes (sandwich culture), Mean Fold Induction, CYP1A2 mRNA; Lot# 1911442; 50 μM; 48 h
experimental_endpoint: fold induction at 48 h, 50 µM
Quick one: just the number, no unit, thanks!

Exercise: What value of fold induction at 48 h, 50 µM on CYP1A2 does COc1ccc2[nH]c([S+]([O-])Cc3ncc(C)c(OC)c3C)nc2c1 (stereo not shown) [OME, omeprazole, reference compound] have?
Solution: 10

###

Molecular target: CYP1A2 (Homo sapiens, UniProt P05177)
Construct: Mixed human liver microsomes were purchased from BioreclamationIVT; tissue BioreclamationIVT; host or cells: mixed-donor pool of human liver microsomes (Lot ZZQ)
Sequence (P05177 whole entry): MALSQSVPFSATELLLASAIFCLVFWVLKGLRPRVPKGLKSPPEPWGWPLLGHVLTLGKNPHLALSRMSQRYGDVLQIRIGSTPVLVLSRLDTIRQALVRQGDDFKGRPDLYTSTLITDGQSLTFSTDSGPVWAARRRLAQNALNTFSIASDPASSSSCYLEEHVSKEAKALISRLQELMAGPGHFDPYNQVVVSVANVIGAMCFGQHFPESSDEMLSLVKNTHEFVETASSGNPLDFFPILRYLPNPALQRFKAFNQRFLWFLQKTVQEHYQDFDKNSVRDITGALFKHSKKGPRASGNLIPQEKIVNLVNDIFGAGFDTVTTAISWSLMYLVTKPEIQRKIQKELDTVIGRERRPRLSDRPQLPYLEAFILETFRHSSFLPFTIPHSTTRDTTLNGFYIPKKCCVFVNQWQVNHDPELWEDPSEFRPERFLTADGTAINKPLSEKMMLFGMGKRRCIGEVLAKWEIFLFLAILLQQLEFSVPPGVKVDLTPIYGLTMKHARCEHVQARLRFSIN
Test: Time-dependent inhibition (IC50 shift) in human liver microsomes
Assay type: in vitro ADME
Details: probe phenacetin, positive control not given, likely furafylline
experimental_endpoint: IC50

Exercise: Give the measured IC50 of OC[C@H]1O[C@@H](OCCc2ccc(O)cc2)[C@H](O)[C@@H](O)[C@@H]1O [Salidroside] .
Solution: > 50 µM

###

Biological target: recombinant human MAO-A (Homo sapiens)
Sequence (P21397 whole entry): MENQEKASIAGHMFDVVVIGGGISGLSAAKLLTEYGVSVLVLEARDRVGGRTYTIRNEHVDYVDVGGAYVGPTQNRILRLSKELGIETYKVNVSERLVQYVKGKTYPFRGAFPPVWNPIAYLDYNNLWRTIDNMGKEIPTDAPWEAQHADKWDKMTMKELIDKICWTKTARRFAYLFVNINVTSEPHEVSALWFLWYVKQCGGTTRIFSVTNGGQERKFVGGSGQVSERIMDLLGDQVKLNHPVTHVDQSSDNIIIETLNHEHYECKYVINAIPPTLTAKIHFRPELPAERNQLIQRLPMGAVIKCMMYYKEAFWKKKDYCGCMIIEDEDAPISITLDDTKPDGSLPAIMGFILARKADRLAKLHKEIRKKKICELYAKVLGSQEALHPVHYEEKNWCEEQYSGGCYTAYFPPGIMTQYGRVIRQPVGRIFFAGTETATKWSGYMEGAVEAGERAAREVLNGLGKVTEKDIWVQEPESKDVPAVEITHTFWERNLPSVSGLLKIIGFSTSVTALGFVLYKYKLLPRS
Assay: MAO inhibition, kynuramine oxidation to 4-hydroxyquinoline
Type: biochemical
Details: substrate kynuramine (20 µM); mean of N = 2; read-out: IC50 MAO-A
experimental_endpoint: pIC50
// scale note: pIC50 = -log10(conc_M); give the bare number

Exercise: Lab note: need pIC50 with recombinant human MAO-A (Homo sapiens) for entry Cc1oncc1C(=O)Nc1ccc(C(F)(F)F)cc1 [leflunomide, reference compound] , please look it up.
Solution: 4.86

###

Test system: CYP1A2
Assay: in vitro
experimental_endpoint: fold induction at 48 h, 50 µM
Respond using a number only.

Exercise: Sample COc1ccc2[nH]c([S+]([O-])Cc3ncc(C)c(OC)c3C)nc2c1 (stereo not shown) [OME, omeprazole, reference compound] — what was its fold induction at 48 h, 50 µM?
Solution: 3.55

###

Tested on: CYP2B6
Assay: in vitro
Settings: human
experimental_endpoint: fold induction at 48 h, 1 µM
Lab note: write the figure by itself, no unit.

Exercise: So what's the measured fold induction at 48 h, 1 µM for this one? OC[C@H]1O[C@@H](OCCc2ccc(O)cc2)[C@H](O)[C@@H](O)[C@@H]1O [Salidroside]
Solution: 0.58
